System: 772245-204-R-J1-PDC complex spheroid growth;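 further: compound exposure lasted seven days; 100% = DMSO vehicle control viability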
Test: Anticancer human tumor 772245-204-R-J1-PDC patient-derived rhabdomyosarcoma cell line growth inhibition [Asc]
Conditions: second compound 0.3 µM; first compound 1 µM; hits give low values
Description: Multicellular complex tumor spheroid response to apoptosis pathway targeting inhibitors Alrizomadlin, Pelcitoclax, and Dasminapant in combination with a variety of drugs and investigational agents in selected tumor cell lines […] Compounds. […] If the clinical Cmax for an agent had not been determined, the highest concentration tested was 10 microM. […]
Task for the reader: assign each of the following compounds its reported viability, T/C.
Report the value in % with no unit label.

Request: Any idea what viability, T/C was measured for CNC(C)C(=O)NC1CN(S(=O)(=O)c2cccc(S(=O)(=O)N3CCC4CCC(C(=O)NC(c5ccccc5)c5ccccc5)N4C(=O)C(NC(=O)C(C)NC)C3)c2)CCC2CCC(C(=O)NC(c3ccccc3)c3ccccc3)N2C1=O (centres undefined) + CCN1C(C(=O)NC23CCC(C(=O)O)(CC2)CC3)C(c2cccc(Cl)c2F)C2(C(=O)Nc3cc(Cl)ccc32)C12CCCCC2 ?
Result: 88.1

Request: Try O=C(c1ccc(F)c(F)c1Nc1ccc(I)cc1F)N1CC(O)([C@@H]2CCCCN2)C1 + CCN1C(C(=O)NC23CCC(C(=O)O)(CC2)CC3)C(c2cccc(Cl)c2F)C2(C(=O)Nc3cc(Cl)ccc32)C12CCCCC2 next.
Result: 73.9

Request: Try C=CC(=O)N1CCN(c2nc(=O)n(-c3c(C)ccnc3C(C)C)c3nc(-c4c(O)cccc4F)c(F)cc23)C(C)C1 (centres undefined) + CCN1C(C(=O)NC23CCC(C(=O)O)(CC2)CC3)C(c2cccc(Cl)c2F)C2(C(=O)Nc3cc(Cl)ccc32)C12CCCCC2 next.
Result: 113

Request: Try COc1c(OCCCN2CCOCC2)ccc2c3n(c(=NC(=O)c4cnc(N)nc4)nc12)CCN3 + CCN1C(C(=O)NC23CCC(C(=O)O)(CC2)CC3)C(c2cccc(Cl)c2F)C2(C(=O)Nc3cc(Cl)ccc32)C12CCCCC2 next.
Result: 30
